Molecular target: UniProtKB P34969
PROPERTY MEASURED: IC50

Consider the worked cases shown below.
C[C@H](Nc1nc(N)nc(NCCc2cccc(Cl)c2)n1)c1ccccc1 :: ≤ 50 nM
CC(Nc1ccnc(NC2Cc3ccccc3C2)n1)c1ccccc1 (stereo not shown) :: 51 to 100 nM
C[C@H](Nc1nc(N)nc(NCCc2ccc(F)cc2)n1)c1ccccc1 :: ≤ 50 nM

Switching to the query record.
(Q) What does the record list as IC50 for CC(Nc1ccnc(NCCc2ccc(Cl)c(Cl)c2)n1)c1ccccc1 (stereo not shown) ?
(A) 51 to 100 nM

###

System: human 5-HT7 receptor (Homo sapiens, UniProt P34969) | Read-out: IC50
Sequence (P34969 whole entry): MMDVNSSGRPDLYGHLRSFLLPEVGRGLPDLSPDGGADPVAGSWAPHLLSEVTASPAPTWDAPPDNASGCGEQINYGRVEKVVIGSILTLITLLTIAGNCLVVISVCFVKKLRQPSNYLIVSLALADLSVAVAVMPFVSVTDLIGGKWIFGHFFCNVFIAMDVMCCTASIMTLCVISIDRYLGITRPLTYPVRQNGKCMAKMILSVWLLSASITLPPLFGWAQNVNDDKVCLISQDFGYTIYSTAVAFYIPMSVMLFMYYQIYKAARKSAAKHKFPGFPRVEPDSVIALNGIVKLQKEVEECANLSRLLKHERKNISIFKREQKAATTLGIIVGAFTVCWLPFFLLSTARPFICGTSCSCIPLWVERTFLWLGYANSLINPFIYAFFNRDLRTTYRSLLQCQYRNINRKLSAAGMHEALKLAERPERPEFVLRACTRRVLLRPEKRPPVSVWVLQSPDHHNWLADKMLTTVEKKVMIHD

Consider the worked cases shown below.
COc1cccc(CCNc2nc(C)cc(N[C@@H](C)c3ccccc3)n2)c1 :: ≤ 50 nM
C[C@H](Nc1nc(N)nc(NCCc2ccccc2)n1)c1cccc2ccccc12 :: 51 to 100 nM
COc1ccccc1CCNc1nccc(NC(C)c2ccccc2)n1 (stereo not drawn) :: 51 to 100 nM
C[C@H](Nc1ccnc(NCCOc2ccccc2)n1)c1cccc2ccccc12 :: ≤ 50 nM
C[C@H](Nc1nc(N)nc(NCCNc2ccccc2)n1)c1cccc2ccccc12 :: 101 to 200 nM

(Q) What does the record list as IC50 for "CC(C)c1ccc(CNc2ccnc(NCCOc3ccccc3)n2)cc1" ?
(A) ≤ 50 nM

###

pIC50: −log10 of the molar value.
System: human 5-HT7 receptor (Homo sapiens, UniProt P34969) | Read-out: pIC50

C[C@H](Nc1cc(NCCc2ccc(O)cc2)ncn1)c1ccccc1 :: ≥ 7.30
C[C@H](Nc1nc(N)nc(NCCc2cccc(Cl)c2)n1)c1ccc([N+](=O)[O-])cc1 :: 7.00 to 7.29
CC[C@H](Nc1nc(N)nc(NCCOc2ccccc2)n1)c1ccccc1 :: 7.00 to 7.29

(Q) What does the record list as pIC50 for "FC(F)(F)c1ccc(CNc2ccnc(NCCOc3ccccc3)n2)cc1" ?
(A) 6.70 to 7.00

(Q) How about this molecule: CC(Nc1ccnc(NCCc2ccccc2F)n1)c1ccccc1 (stereo not drawn)
(A) ≥ 7.30

(Q) How about this molecule: "Fc1ccc(CNc2ccnc(NCCOc3ccccc3)n2)cc1F"
(A) ≥ 7.30
